# TARGET_DESC: RAC-gamma serine/threonine-protein kinase (Homo sapiens)
# CONDITION_NOTES: at 0.1 µM
# Description: GSK_PKIS: AKT3 mean inhibition at 0.1 uM [Nanosyn]
# Lookup of reported inhibition keyed by entry
Remember to quote the unit after the number.

Here's what some known entries look like.
Cc1cccc2c1NC(=O)/C2=N\Nc1ccc(S(N)(=O)=O)cc1 | 1.07%
NS(=O)(=O)c1ccc(Nc2ncc(-c3ccccc3)o2)cc1 | 0.97%
CCCN(CCS(C)(=O)=O)Cc1ccc(-c2ccc3ncnc(Nc4ccc(OCc5cccc(F)c5)c(Cl)c4)c3c2)o1 | 0.64%
CCn1c(-c2nonc2N)nc2c(C#CC(C)(C)O)nc(OC[C@H](N)c3ccccc3)cc21 | 66.8%
CC1=C(C(=O)Nc2cc(Cl)c3[nH]ncc3c2)C(c2ccc(C(F)(F)F)cc2)CC(=O)N1 (stereo not given) | 2.98%
CCOc1ccc2c(-c3ccnc(Nc4cccc(C(F)(F)F)c4)n3)cnn2n1 | -0.38%

(Q) Given `CCc1nn2ncccc2c1-c1ccnc(NC2CC2)n1` , respond with its inhibition.
(A) 0.81%

(Q) Given `Nc1ncc(-c2cccc(S(N)(=O)=O)c2)c2scc(-c3ccc(F)c(Cl)c3)c12` , respond with its inhibition.
(A) -0.27%

(Q) Given `COc1ccc(-c2cc3c(N)ncnc3o2)cc1` , respond with its inhibition.
(A) -1.06%

(Q) Given `CNC(=O)c1cncc(/C=C/c2ccccc2Cl)c1` , respond with its inhibition.
(A) -0.57%

====

# Lookup of reported inhibition keyed by entry
# Test system: Epidermal growth factor receptor (Homo sapiens), P00533 [L861Q]
# Sequence (P00533 whole entry L861Q): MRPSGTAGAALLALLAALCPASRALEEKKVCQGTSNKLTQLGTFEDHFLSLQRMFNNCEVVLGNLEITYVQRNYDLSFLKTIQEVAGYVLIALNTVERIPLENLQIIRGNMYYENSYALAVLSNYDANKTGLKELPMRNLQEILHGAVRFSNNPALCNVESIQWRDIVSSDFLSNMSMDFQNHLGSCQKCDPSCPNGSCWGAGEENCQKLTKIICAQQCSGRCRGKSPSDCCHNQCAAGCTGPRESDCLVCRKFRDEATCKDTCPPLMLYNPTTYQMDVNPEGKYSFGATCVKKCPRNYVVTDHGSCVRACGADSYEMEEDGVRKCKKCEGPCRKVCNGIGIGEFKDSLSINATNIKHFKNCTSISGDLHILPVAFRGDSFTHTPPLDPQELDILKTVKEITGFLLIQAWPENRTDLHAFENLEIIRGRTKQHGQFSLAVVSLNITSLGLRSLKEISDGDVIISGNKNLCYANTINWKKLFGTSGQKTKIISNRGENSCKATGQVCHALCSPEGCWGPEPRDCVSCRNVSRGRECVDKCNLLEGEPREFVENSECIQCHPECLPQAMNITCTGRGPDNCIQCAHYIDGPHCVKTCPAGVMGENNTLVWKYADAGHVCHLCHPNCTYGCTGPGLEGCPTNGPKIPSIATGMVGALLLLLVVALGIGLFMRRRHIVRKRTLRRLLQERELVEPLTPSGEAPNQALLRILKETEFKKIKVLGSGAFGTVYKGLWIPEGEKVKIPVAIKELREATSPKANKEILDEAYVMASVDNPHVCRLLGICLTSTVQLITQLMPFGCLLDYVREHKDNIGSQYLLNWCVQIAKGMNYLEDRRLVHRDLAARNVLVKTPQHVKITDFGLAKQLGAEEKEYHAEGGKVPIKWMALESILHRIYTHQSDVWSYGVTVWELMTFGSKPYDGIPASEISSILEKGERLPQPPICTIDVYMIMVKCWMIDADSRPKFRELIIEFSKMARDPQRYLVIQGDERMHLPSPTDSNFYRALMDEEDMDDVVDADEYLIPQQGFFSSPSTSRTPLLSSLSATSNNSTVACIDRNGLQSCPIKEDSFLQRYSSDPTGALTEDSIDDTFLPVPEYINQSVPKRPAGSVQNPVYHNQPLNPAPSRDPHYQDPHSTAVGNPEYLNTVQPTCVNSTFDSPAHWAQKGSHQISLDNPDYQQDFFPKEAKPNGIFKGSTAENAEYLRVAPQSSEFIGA
# CONDITION_NOTES: at 1 µM
Provide only the numeric value, understood in %.

Here's what some known entries look like.
COc1cccc(-c2c[nH]c3c(N/N=C/c4ccncc4)ncnc23)c1 | 45.4
N#Cc1c(NC(=O)CN2CCOCC2)sc2c1CCCC2 | 3.29
CCn1c(-c2nonc2N)nc2ccccc21 | 0.53
COc1cc(/C=N/Nc2ncnc3[nH]ncc23)ccc1O | 4.72
O=C(O[C@H]1CN[C@H](C#Cc2cc3ncnc(Nc4ccc(Cc5ccccc5)cc4)c3s2)C1)N1CCOCC1 | 26.9
CCc1nn2ncccc2c1-c1ccnc(NC2CC2)n1 | 2.47
Cc1cccc2c1NC(=O)/C2=N\Nc1ccc(S(N)(=O)=O)cc1 | 0.73
Nc1nc(-c2ccc(F)cc2)c(-c2ccc3ncccc3n2)s1 | 22.4

(Q) Given `CCn1c(-c2nonc2N)nc2cnc(Oc3cccc(NC(=O)c4ccc(N(C)C)cc4)c3)cc21` , respond with its inhibition.
(A) -0.57

(Q) Given `COc1ccc(CNC(=O)c2ccc(-c3cc(-c4nnc(C)o4)ccc3C)cc2)cc1` , respond with its inhibition.
(A) 7.03

====

# TARGET_DESC: Phosphorylase b kinase gamma catalytic chain, skeletal muscle/heart isoform (Homo sapiens);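 note: each value is a mean percent inhibition of PHKG1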
# CONDITION_NOTES: at 1 µM
READOUT_LABEL: inhibition

Here's what some known entries look like.
CCNC(=O)O[C@H]1CN[C@H](C#Cc2cc3ncnc(Nc4ccc(OCc5cccc(F)c5)c(Cl)c4)c3s2)C1 | 0.44%
CN1CCC(n2cnc(-c3ccc(F)cc3)c2-c2ccnc(Nc3ccccc3)n2)CC1 | 4.79%
Cc1ccc(O)cc1Nc1ccnc2cc(-c3ccccn3)ccc12 | 9.36%
Cc1cccc2c1NC(=O)/C2=N\Nc1ccc(S(N)(=O)=O)cc1 | 2.98%
Cc1ccc2c(-c3ccnc(Nc4ccccc4)n3)c(-c3ccc(F)cc3)nn2n1 | 4.45%

(Q) Check Phosphorylase b kinase gamma catalytic chain, skeletal muscle/heart isoform (Homo sapiens) data and give inhibition for `O=S(=O)(CCNCc1ccc(-c2ccc3ncnc(Nc4ccc(OCc5cccc(F)c5)c(Cl)c4)c3c2)o1)c1ccccc1` .
(A) 9.29%

====

# Lookup of reported inhibition keyed by entry
# TARGET_DESC: Serine/threonine-protein kinase SIK2 (Homo sapiens)
# CONDITION_NOTES: at 0.1 µM
# Description: GSK_PKIS: SNF1LK2 (QIK) mean inhibition at 0.1 uM [Nanosyn]
Provide only the numeric value, understood in %.

Here's what some known entries look like.
CCn1c(-c2nonc2N)nc2ccccc21 | 9.3
Fc1ccc(-c2nn3ncccc3c2-c2ccnc(Nc3ccc4c(c3)OCCO4)n2)cc1 | 18.8
O=C(O[C@H]1CN[C@H](C#Cc2cc3ncnc(Nc4ccc(Cc5ccccc5)cc4)c3s2)C1)N1CCOCC1 | -0.21

(Q) Given `COc1cc2c(cc1Nc1nc(Nc3ccsc3C(N)=O)c3cc[nH]c3n1)N(C(=O)CN(C)C)CCC2(C)C` , respond with its inhibition.
(A) 7.71

(Q) Given `COc1cccc(-c2c[nH]c3c(N/N=C/c4ccncc4)ncnc23)c1` , respond with its inhibition.
(A) 28.6

(Q) Given `CC(C)(CO)CNC(=O)c1ccc2c(c1)/C(=N/Nc1ccc(S(N)(=O)=O)cc1)C(=O)N2` , respond with its inhibition.
(A) -1.9

(Q) Given `CCOc1ccc2c(-c3ccnc(Nc4cccc(C(F)(F)F)c4)n3)cnn2n1` , respond with its inhibition.
(A) 2.86

(Q) Given `CNC(=O)c1cncc(/C=C/c2ccccc2Cl)c1` , respond with its inhibition.
(A) 2.24

(Q) Given `Fc1ccc(-c2nn3ccccc3c2-c2ccncc2)cc1` , respond with its inhibition.
(A) 0

(Q) Given `N#Cc1c(NC(=O)c2ccc(F)cc2)sc2c1CCCC2` , respond with its inhibition.
(A) -1.57

(Q) Given `Nc1nc(-c2cccc(Cl)c2)c(-c2ccc3ncccc3n2)s1` , respond with its inhibition.
(A) 4.96

====

# Tested on: Platelet-derived growth factor receptor alpha (Homo sapiens), P16234 [V561D]
# Sequence (P16234 whole entry V561D): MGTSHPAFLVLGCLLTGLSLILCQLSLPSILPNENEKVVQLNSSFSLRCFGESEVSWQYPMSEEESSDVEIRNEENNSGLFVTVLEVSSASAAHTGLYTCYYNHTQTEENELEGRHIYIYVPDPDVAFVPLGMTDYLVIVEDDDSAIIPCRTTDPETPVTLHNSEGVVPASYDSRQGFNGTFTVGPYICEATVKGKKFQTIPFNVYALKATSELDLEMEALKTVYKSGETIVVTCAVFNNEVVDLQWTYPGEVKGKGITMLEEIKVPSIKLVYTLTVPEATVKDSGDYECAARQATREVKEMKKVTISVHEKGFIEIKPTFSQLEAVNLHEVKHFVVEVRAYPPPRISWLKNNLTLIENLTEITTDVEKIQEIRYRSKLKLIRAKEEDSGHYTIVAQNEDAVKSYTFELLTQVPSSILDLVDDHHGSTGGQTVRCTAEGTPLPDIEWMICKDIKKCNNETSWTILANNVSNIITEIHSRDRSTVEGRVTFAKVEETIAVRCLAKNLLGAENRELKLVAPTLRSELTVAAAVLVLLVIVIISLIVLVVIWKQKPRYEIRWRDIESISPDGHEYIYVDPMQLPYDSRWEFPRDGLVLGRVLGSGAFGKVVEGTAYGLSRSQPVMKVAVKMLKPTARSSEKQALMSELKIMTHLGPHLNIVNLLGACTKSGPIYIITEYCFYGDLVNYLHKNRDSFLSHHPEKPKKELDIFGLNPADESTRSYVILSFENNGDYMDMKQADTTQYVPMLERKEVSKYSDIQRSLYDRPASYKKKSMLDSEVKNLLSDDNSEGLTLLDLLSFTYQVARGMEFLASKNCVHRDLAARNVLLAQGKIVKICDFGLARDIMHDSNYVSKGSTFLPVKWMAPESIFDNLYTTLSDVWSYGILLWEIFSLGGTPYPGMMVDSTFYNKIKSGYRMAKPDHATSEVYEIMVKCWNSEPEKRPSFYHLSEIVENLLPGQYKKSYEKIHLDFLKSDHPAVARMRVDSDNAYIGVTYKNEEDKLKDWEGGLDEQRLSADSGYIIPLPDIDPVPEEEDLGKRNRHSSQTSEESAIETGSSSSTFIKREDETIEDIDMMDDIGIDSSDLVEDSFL
# CONDITION_NOTES: at 0.1 µM
# Lookup of reported inhibition keyed by entry
Provide only the numeric value, understood in %.

(Q) Given `COc1cc2ncn(-c3cc(OCc4ccccc4C(F)(F)F)c(C(=O)N(C)C)s3)c2cc1OC` , respond with its inhibition.
(A) 5.15

(Q) Given `COC(=O)c1sc(-n2cnc3cc(OC)c(OC)cc32)cc1OCc1ccccc1C(F)(F)F` , respond with its inhibition.
(A) 22.2

====

# TARGET_DESC: Angiopoietin-1 receptor (Homo sapiens)
# CONDITION_NOTES: at 0.1 µM
# Description: GSK_PKIS: TIE2 mean inhibition at 0.1 uM [Nanosyn]
# Lookup of reported inhibition keyed by entry
Provide only the numeric value, understood in %.

Here's what some known entries look like.
c1ccc(-c2nc3n(c2-c2ccc4c(c2)OCO4)CCC3)nc1 | -0.12
CCCN1CCC(c2ccc(Nc3nc(Nc4cc(F)ccc4C(N)=O)c4cc[nH]c4n3)c(OC)c2)CC1 | 2.84
CNC(=O)c1cccc(C#Cc2cncnc2Nc2ccc(OCc3cccc(F)c3)c(Cl)c2)c1 | -0.1
Cc1ccc2c(-c3ccnc(Nc4ccccc4)n3)c(-c3ccc(F)cc3)nn2n1 | 3.44

(Q) Check Angiopoietin-1 receptor (Homo sapiens) data and give inhibition for `COc1ccc(-c2cc3c(N)ncnc3o2)cc1` .
(A) 2.49

(Q) Check Angiopoietin-1 receptor (Homo sapiens) data and give inhibition for `COc1cc2ncn(-c3cc(OCc4ccccc4C(F)(F)F)c(C(=O)N(C)C)s3)c2cc1OC` .
(A) 1.94

(Q) Check Angiopoietin-1 receptor (Homo sapiens) data and give inhibition for `Nc1nc(-c2cccc(Cl)c2)c(-c2ccc3ncccc3n2)s1` .
(A) 4.2

(Q) Check Angiopoietin-1 receptor (Homo sapiens) data and give inhibition for `COc1cc2c(cc1Nc1nc(Nc3ccsc3C(N)=O)c3cc[nH]c3n1)N(C(=O)CN(C)C)CCC2(C)C` .
(A) 1.06

(Q) Check Angiopoietin-1 receptor (Homo sapiens) data and give inhibition for `COC(=O)Nc1nc2ccc(S(=O)(=O)c3ccc(NC(=O)Nc4cc(C(F)(F)F)ccc4F)cc3)cc2[nH]1` .
(A) 5.47

====

# Lookup of reported inhibition keyed by entry
# TARGET_DESC: Ephrin type-A receptor 3 (Homo sapiens) (UniProt P29320);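 note: values are mean inhibition of EPHA3, from the GSK PKIS dataset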
# Sequence (whole entry): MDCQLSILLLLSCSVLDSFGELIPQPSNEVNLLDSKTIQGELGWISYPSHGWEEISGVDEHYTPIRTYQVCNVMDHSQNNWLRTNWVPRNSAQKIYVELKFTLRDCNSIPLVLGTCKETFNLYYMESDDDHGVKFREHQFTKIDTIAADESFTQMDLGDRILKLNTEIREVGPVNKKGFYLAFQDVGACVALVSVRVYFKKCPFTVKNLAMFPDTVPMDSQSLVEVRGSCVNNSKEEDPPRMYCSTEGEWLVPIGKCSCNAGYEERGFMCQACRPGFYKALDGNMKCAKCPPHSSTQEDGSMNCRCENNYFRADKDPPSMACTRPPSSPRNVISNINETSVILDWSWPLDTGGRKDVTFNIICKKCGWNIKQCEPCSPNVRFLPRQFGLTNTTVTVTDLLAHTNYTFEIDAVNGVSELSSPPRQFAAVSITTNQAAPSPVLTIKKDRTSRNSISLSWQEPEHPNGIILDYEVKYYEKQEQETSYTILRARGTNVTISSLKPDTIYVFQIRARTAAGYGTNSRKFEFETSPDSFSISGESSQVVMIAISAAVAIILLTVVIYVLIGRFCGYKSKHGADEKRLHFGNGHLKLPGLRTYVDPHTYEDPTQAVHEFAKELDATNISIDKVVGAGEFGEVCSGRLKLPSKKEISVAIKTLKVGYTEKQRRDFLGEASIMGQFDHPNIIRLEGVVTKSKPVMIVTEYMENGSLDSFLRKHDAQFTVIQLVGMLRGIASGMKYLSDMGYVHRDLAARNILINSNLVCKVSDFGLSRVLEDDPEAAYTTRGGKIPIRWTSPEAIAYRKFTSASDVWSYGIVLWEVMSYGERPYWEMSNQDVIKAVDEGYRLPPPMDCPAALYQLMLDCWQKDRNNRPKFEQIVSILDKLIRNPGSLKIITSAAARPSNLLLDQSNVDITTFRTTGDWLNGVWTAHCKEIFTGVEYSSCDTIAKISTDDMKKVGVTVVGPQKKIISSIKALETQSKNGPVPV
# CONDITION_NOTES: at 0.1 µM
Provide only the numeric value, understood in %.

Here's what some known entries look like.
Cc1cccc(Nc2ncc(-c3ccccc3)o2)c1 | 2.3
c1cc(-c2cnn3nc(N4CCOCC4)ccc23)nc(NC2CC2)n1 | 5.23

(Q) Given `CCNC(=O)O[C@H]1CN[C@H](C#Cc2cc3ncnc(Nc4ccc(OCc5cccc(F)c5)c(Cl)c4)c3s2)C1` , respond with its inhibition.
(A) 6.99

(Q) Given CC1=C(C(=O)Nc2cc(Cl)c3[nH]ncc3c2)C(c2ccc(C(F)(F)F)cc2)CC(=O)N1 (stereo not drawn) , respond with its inhibition.
(A) 2.24

(Q) Given `COc1ccc(-c2cc3c(N)ncnc3o2)cc1` , respond with its inhibition.
(A) -3.56
